Entry source: patent US20230235004A1

# tested.target: T1, human MAdCAM expressed on cells (human, UniProt Q13477 19-382)
# T1 construct: whole, on cells
# T1 sequence (looked up): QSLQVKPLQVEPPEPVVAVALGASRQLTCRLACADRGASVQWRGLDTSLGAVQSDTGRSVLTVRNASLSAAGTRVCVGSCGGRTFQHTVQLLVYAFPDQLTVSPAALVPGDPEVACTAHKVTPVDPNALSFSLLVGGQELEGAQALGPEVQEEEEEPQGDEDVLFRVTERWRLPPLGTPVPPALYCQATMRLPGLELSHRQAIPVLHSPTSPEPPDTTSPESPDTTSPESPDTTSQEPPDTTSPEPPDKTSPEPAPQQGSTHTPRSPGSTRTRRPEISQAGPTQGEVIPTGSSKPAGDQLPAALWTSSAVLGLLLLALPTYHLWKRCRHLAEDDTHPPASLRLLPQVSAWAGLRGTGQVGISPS
# method: cell binding

# binder, binding result
rows = [
    ("MAdCAM Antibody Table 2 clone 75 (antibody, V domains shown, IgG format) VH: EVQLLESGGGLVQPGGSLRLSCAASGFTFSDFWMHWVRQAPGKGLEWISYISGDSGYTNYADSVKGRFTISRDNSKNTLYLQMNSLRAEDTAVYYCARDRPYYYYMDVWGKGTTVTVSS VL: DIQMTQSPSSLSASVGDRVTITCRASQSVSRSLAWYQQKPGKAPKLLIYAASSLQSGVPSRFSGSGSGTDFTLTISSLQPEDFATYYCQQYKSYPVTFGQGTKVEIK", "binds"),
    ("MAdCAM Antibody Table 2 clone 46 (antibody, V domains shown, IgG format) VH: EVQLLESGGGLVQPGGSLRLSCAASGFSFSSYTMNWVRQAPGKGLEWVSFITSSSRTIYYADSVKGRFTISRDNSKNTLYLQMNSLRAEDTAVYYCARDRRGDYGDSWYFDLWGRGTLVTVSS VL: EIVMTQSPATLSVSPGERATLSCRASQSVRNYLAWYQQKPGQAPRLLIYGASTRATGIPARFSGSGSGTEFTLTISSLQSEDFAVYYCQQYGSSPLTFGGGTKVEIK", "binds"),
    ("MAdCAM Antibody Table 2 clone 81 (antibody, V domains shown, IgG format) VH: EVQLLESGGGLVKPGGSLRLSCAASGFAFSSHWMHWVRQAPGKGLEWVAGTSGSGESRDYADFVKGRFTISRDDSKNTLYLQMNSLKTEDTAVYYCARETYYYYYMDVWGKGTTVTVSS VL: DIQMTQSPSSLSASVGDRVTITCRASQGISNYLAWYQQKPGKAPKLLIYDAANLEGGVPSRFSGSGSGTDFTLTISSLQPEDFATYYCQQSDIFPPTFGQGTKVEIK", "binds"),
]
